molecular target: wild-type ERAB or HADH2 (Homo sapiens, UniProt Q99714); construct: spontaneous mutant of strain BL21(DE3), 'B121 (DE3)' [sic]); assay: Isothermal titration calorimetry, cofactor binding experiments; settings: 2.68 mM cofactor titrated into 127 μM wild-type ERAB or HADH2, 15° C.; read-out: Kd for NAD+
Sequence (Q99714 whole entry): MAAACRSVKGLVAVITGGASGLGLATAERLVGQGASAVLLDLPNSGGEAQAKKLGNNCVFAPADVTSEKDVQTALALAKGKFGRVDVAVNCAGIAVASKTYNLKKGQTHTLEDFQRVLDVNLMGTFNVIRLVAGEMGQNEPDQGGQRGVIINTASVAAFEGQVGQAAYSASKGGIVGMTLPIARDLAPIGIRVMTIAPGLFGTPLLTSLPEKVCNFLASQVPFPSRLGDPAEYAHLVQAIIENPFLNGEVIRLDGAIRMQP
Measure: Kd

Task: Recorded Kd for NC(=O)c1ccc[n+]([C@@H]2O[C@H](COP(=O)([O-])OP(=O)(O)OC[C@H]3O[C@@H](n4cnc5c(N)ncnc54)[C@H](O)[C@@H]3O)[C@@H](O)[C@H]2O)c1 [NAD^+, reference compound] , please?
Output: ~500 µM
